Where these numbers come from: the supplement of paper PMC10981050

Test system: OCI-AML2
experimental-protocol: cell viability relative to vehicle control; higher = less cytotoxic;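 also: after 48 h exposure read by CellTiter-Glo luminescence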
measurement-setup: 10 µM; SRSF2 genotype: P95H/wt
Counter-ions that a name gives are not always drawn.
cell viability vs 90%: less than gives T; not less than gives F.

A record lists O=CO [Formate] . Is its cell viability below 90%? F

A record lists `NC(=O)Nc1cc(-c2cccc(F)c2)sc1C(=O)N[C@H]1CCCNC1` . Is its cell viability below 90%? T

A record lists N[C@@H](Cc1c[nH]c2ccc(O)cc12)C(=O)O [5-hydroxytryptophan (5-HTP)] . Is its cell viability below 90%? F

A record lists O=C(c1ccc(OCCN2CCCCC2)cc1)c1c(-c2ccc(O)cc2)sc2cc(O)ccc12 [Evista (Raloxifene Hydrochloride)] . Is its cell viability below 90%? T

A record lists C[C@@H]1O[C@@H](OC[C@H]2O[C@@H](Oc3cc(O)c4c(=O)cc(-c5ccc(O)cc5)oc4c3)[C@H](O[C@@H]3O[C@@H](C)[C@H](O)[C@@H](O)[C@H]3O)[C@@H](O)[C@@H]2O)[C@H](O)[C@H](O)[C@H]1O [ligustroflavone] . Is its cell viability below 90%? F

A record lists COc1nc2ccc(Br)cc2cc1[C@@H](c1ccccc1)[C@@](O)(CCN(C)C)c1cccc2ccccc12 [Bedaquiline fumarate] . Is its cell viability below 90%? T

A record lists `CC[C@H](Nc1ncnc2[nH]cnc12)c1nc2cccc(F)c2c(=O)n1-c1ccccc1` . Is its cell viability below 90%? T

A record lists C[C@@H]1CC(=O)NN=C1c1ccc(NN=C(C#N)C#N)cc1 [Levosimendan] . Is its cell viability below 90%? T

A record lists CCOc1ccc2ccccc2c1C(=O)N[C@@H]1C(=O)N2[C@@H]1SC(C)(C)[C@@H]2C(=O)O [Nafcillin Sodium] . Is its cell viability below 90%? F

A record lists CC[C@@H](CO)NCCN[C@@H](CC)CO [Ethambutol HCl] . Is its cell viability below 90%? F

A record lists `C/C(=N\NC(=O)c1cccc(S(=O)(=O)N2CCOCC2)c1)c1cc(Cl)ccc1O` . Is its cell viability below 90%? T

---

Tested on: MARIMO
experimental-protocol: cell viability relative to vehicle control; higher = less cytotoxic
measurement-setup: 10 µM; SRSF2 genotype: SRSF2 P95H/wt
Counter-ions that a name gives are not always drawn.
For each entry below, report its cell viability value.
Enter your answer as a number in %; do not include the unit.

Tell me measured cell viability for `CC#CC(=O)N1CCC[C@H]1c1nc(-c2ccc(C(=O)Nc3ccccn3)cc2)c2c(N)nccn12` please. 101

Tell me measured cell viability for CC[C@H]1OC(=O)C[C@@H](O)[C@H](C)[C@@H](O[C@@H]2O[C@H](C)[C@@H](O)[C@H](N(C)C)[C@H]2O)[C@@H](CCN2C[C@H](C)C[C@H](C)C2)C[C@@H](C)C(=O)/C=C/C(C)=C/[C@@H]1CO[C@@H]1O[C@H](C)[C@@H](O)[C@@H](OC)[C@H]1OC [Tilmicosin] please. 95.6

Tell me measured cell viability for CC1(C)CCC2(C(=O)O)CCC3=C(C(CCl)CC4C3(C)CCC3C4(C)CC(O)C(O)C3(C)C(=O)O)C2C1 (stereo not given) please. 96.8

Tell me measured cell viability for `NCCCNCCCCNCCCN` please. 103

Tell me measured cell viability for CCCCCCOc1cc(C)c(O)c(C)c1C [HTHQ(1-O-Hexyl-2,3,5-trimethylhydroquinone)] please. 89.1

Tell me measured cell viability for `CNCc1ccc(-c2cc(-c3nc(-c4ccc(S(=O)(=O)C(C)C)cc4)cnc3N)on2)cc1` please. 0.36

Tell me measured cell viability for Clc1ccc(CCC(Cn2ccnc2)Sc2c(Cl)cccc2Cl)cc1 (stereo not given) [Butoconazole nitrate] please. 75.8

Tell me measured cell viability for `CCCCOc1ccc(CC(=O)NO)cc1` please. 91.6

Tell me measured cell viability for COC(=O)c1cc(OC)c(O)c(OC)c1 [Methyl syringate] please. 94

Tell me measured cell viability for `C[C@@]1(CO)C[C@@H](O)C[C@@]2(C)[C@@H]3CC[C@](C)([C@@H](O)CO)C=C3CC[C@H]12` please. 89.3

Tell me measured cell viability for `CC(C)n1nc(-c2ccc(NC(=O)Nc3cc(C(F)(F)F)ccc3F)cc2)c2c(N)ncnc21` please. 8.66

Tell me measured cell viability for `Cc1ccc(-c2nn(C(C)(C)C)c3ncnc(N)c23)cc1` please. 99.2

Tell me measured cell viability for `Cn1cc(-c2cnn3c(N)c(Br)c([C@@H]4CCCNC4)nc23)cn1` please. 50.4

Tell me measured cell viability for CCCc1nn(C)c2c(=O)[nH]c(-c3cc(S(=O)(=O)N4CCN(C)CC4)ccc3OCC)nc12 [Sildenafil citrate] please. 106

Tell me measured cell viability for Nc1ccc(S(=O)(=O)Nc2ncccn2)cc1 [Sulfadiazine] please. 114

Tell me measured cell viability for CC(C)NCC(O)COc1ccc(CCOCC2CC2)cc1 (stereo not given) [Betaxolol hydrochloride (Betoptic)] please. 103

Tell me measured cell viability for `C[C@@H]1CC[C@@]2(OC1)O[C@H]1C[C@H]3[C@@H]4CC=C5C[C@@H](O[C@@H]6O[C@H](CO)[C@@H](O)[C@H](O)[C@H]6O)CC[C@]5(C)[C@H]4CC[C@]3(C)[C@H]1[C@@H]2C` please. 76.7

Tell me measured cell viability for `C[C@@H](CC[C@@]1(O)O[C@H]2C[C@H]3[C@@H]4CC[C@@H]5C[C@@H](O[C@@H]6O[C@H](CO)[C@H](O)[C@H](O)[C@H]6O[C@@H]6O[C@H](CO)[C@@H](O)[C@H](O)[C@H]6O)CC[C@]5(C)[C@H]4CC[C@]3(C)[C@H]2[C@@H]1C)CO[C@@H]1O[C@H](CO)[C@@H](O)[C@H](O)[C@H]1O` please. 102

Tell me measured cell viability for `CC[C@@](C)(Nc1ccnc(-c2c[nH]c3ncccc23)n1)C(=O)NCC(F)(F)F` please. 95.1

Tell me measured cell viability for `O=C(NNc1ccccc1)c1ccncc1` please. 91.1

Tell me measured cell viability for `O=C(O)CCN1C(=O)/C(=C/c2ccc(-c3ccc([N+](=O)[O-])cc3)o2)SC1=S` please. 100

Tell me measured cell viability for CCOc1ccc2ccccc2c1C(=O)N[C@@H]1C(=O)N2[C@@H]1SC(C)(C)[C@@H]2C(=O)O [Nafcillin Sodium] please. 104

Tell me measured cell viability for `CCCc1ccc(OCC(=O)N(Cc2nc(-c3cccnc3)no2)C(C)C)cc1` please. 81.5

Tell me measured cell viability for `CC(C)Oc1ccc(C(=O)N[C@H](CNC(=O)CN(C)C)Cc2ccc(-c3cn4cccc([C@H](C)O)c4n3)cc2)cc1Cl` please. 34.6

Tell me measured cell viability for `Nc1ncnc2c1ncn2[C@@H]1O[C@H](CO)[C@@H](O)[C@H]1O` please. 104

Tell me measured cell viability for `Cc1nn(C)c(COc2ccc(N3CCN(S(=O)(=O)N(C)C)CC3)cc2)c1-c1cccc2c(CCCOc3cccc4ccccc34)c(C(=O)O)n(CCN3CCOCC3)c12` please. 101

Tell me measured cell viability for COc1ccc2[nH]c([S+]([O-])Cc3ncc(C)c(OC)c3C)nc2c1 (stereo not given) please. 92.8

Tell me measured cell viability for COc1nccc(-c2c(-c3ccc(F)cc3)ncn2C2CCC(O)CC2)n1 (stereo not given) please. 98.3

Tell me measured cell viability for `O=C(/C=C/c1ccc2ccccc2n1)c1ccncc1` please. 0.28

Tell me measured cell viability for `CCCN(CCC)C(=O)C1=Cc2ccc(-c3ccc(C(=O)N4CCCC4)cc3)cc2N=C(N)C1` please. 33.2

---

For each entry below, report its cell viability value.
Tested on: MOLM14
experimental-protocol: cell viability relative to vehicle control; higher = less cytotoxic
measurement-setup: 10 µM; SRSF2 genotype: SRSF2 wt/wt
Where a name gives a salt, the structure may show the parent alone.
Enter your answer as a number in %; do not include the unit.

Tell me measured cell viability for CC(=O)[C@H]1CC[C@H]2[C@@H]3CCC4=CC(=O)CC[C@]4(C)[C@H]3CC[C@]12C [Progesterone (Prometrium)] please. 78.8

Tell me measured cell viability for CC[C@H](c1ccc(O)cc1)[C@@H](CC)c1ccc(O)cc1 [Hexestrol (Bibenzyl)] please. 103

Tell me measured cell viability for `Cc1[nH]c(/C=C2\C(=O)Nc3ccc(S(=O)(=O)N(C)c4cccc(Cl)c4)cc32)c(C)c1C(=O)N1CCN(C)CC1` please. 64.6

Tell me measured cell viability for `O=c1ncn2nc(Sc3ccc(F)cc3F)ccc2c1-c1c(Cl)cccc1Cl` please. 92.9

Tell me measured cell viability for `O=C(Nc1cc(Cl)cc2c1[nH]c1cnccc12)c1cccnc1` please. 101

Tell me measured cell viability for CC1(C)S[C@@H]2[C@H](NC(=O)[C@H](NC(=O)N3CCNC3=O)c3ccccc3)C(=O)N2[C@H]1C(=O)O [Azlocillin sodium salt] please. 88.6

Tell me measured cell viability for COc1cc(/C=C/C(=O)O)ccc1O [Fumalic acid (Ferulic acid)] please. 101

Tell me measured cell viability for `Cc1cccc(-c2[nH]c(C(C)(C)C)nc2-c2ccc3nccnc3c2)n1` please. 101
